target_of_assay: AAK1 (amino acids T27-A365) (Homo sapiens (Human))
assay_overview: AAK1 pSENs assay
Assay type: biochemical
measurement_conditions: ratio of AAK1 pSENs activity to GAK pSENs activity
quantity: AAK1:GAK pSENs Selectivity

Return reported AAK1:GAK pSENs Selectivity for target or system AAK1 (amino acids T27-A365) (Homo sapiens (Human)), item COc1ncccc1-c1cnn2ccc(N3CCN(C(=O)OC4(C)COC4)CC3)nc12 [RC-1, reference compound] .
0.0083

---

target_of_assay: AAK1 (amino acids T27-A365) (Homo sapiens (Human), UniProt Q2M2I8)
Sequence (Q2M2I8 27-365): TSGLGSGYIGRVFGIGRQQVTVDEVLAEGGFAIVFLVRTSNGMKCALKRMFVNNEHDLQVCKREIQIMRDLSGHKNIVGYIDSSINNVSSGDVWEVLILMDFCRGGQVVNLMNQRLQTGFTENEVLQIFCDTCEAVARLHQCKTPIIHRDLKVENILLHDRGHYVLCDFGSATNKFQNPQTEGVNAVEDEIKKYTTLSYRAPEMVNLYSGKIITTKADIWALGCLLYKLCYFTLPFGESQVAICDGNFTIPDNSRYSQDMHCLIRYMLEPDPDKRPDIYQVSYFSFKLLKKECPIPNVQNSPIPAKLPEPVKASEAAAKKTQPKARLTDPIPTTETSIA
assay_overview: AAK1 pSENs assay
Assay type: biochemical
measurement_conditions: ratio of AAK1 pSENs activity to GAK pSENs activity
quantity: AAK1:GAK pSENs Selectivity

Answered cases to consult:
CN1CC[C@@](C)(OC(=O)N2CCN(c3ccn4ncc(-c5cccnc5OC5CC5)c4n3)CC2)C1 : A (A: ≤0.015)
O=C1NCC[C@@H]1OC(=O)N1CCN(c2ccn3ncc(-c4cccnc4OC4CC4)c3n2)CC1 : B (B: 0.016-0.075)
O=C(O[C@H]1CC(=O)N(C2CCNCC2)C1)N1CCN(c2ccn3ncc(-c4cccnc4OC4CC4)c3n2)CC1 : A (A: ≤0.015)
O=C1C[C@@H](OC(=O)N2CCN(c3ccn4ncc(-c5cccnc5OC5CC5)c4n3)CC2)CN1 : A (A: ≤0.015)
c1cc2nc(N3CCNCC3)ccn2n1 : E (E: >1.00)

Report AAK1:GAK pSENs Selectivity from AAK1 (amino acids T27-A365) (Homo sapiens (Human), UniProt Q2M2I8) testing of `CC(C)N1C[C@@H](OC(=O)N2CCN(c3ccn4ncc(-c5cccnc5OC5CC5)c4n3)CC2)CC1=O`
B (B: 0.016-0.075)

Provide the reported AAK1:GAK pSENs Selectivity (system: AAK1 (amino acids T27-A365) (Homo sapiens (Human), UniProt Q2M2I8)) for `Clc1cnn2ccc(N3CCNCC3)nc12`
E (E: >1.00)

---

target_of_assay: AAK1 (amino acids T27-A365) (Homo sapiens (Human), UniProt Q2M2I8)
assay_overview: AAK1 pSENs assay
Assay type: biochemical
measurement_conditions: ratio of AAK1 pSENs activity to GAK pSENs activity
quantity: AAK1:GAK pSENs Selectivity

Below: 5 compounds and their reported AAK1:GAK pSENs Selectivity.
COc1ccccc1-c1cnn2ccc(N3CCN(C(=O)O[C@H]4CO[C@H]5OCC[C@H]54)CC3)nc12 : A (A: ≤0.015)
CC1(OC(=O)N2CCN(c3ccn4ncc(-c5cccnc5OC5CC5)c4n3)CC2)COC1 : A (A: ≤0.015)
C#CC1(OC(=O)N2CCN(c3ccn4ncc(-c5cccnc5OC)c4n3)CC2)CCNC1 (stereo not drawn) : B (B: 0.016-0.075)
C#C[C@]1(OC(=O)N2CCN(c3ccn4ncc(-c5cccnc5OC5CC5)c4n3)CC2)CCNC1 : B (B: 0.016-0.075)
COC(=O)N1CC(Oc2ncccc2-c2cnn3ccc(NCCN(C)C(=O)OC(C)(C)C)nc23)C1 : A (A: ≤0.015)

Note AAK1:GAK pSENs Selectivity for the compound shown: `[2H]C1([2H])N(C(=O)O[C@@H]2CNC(=O)C2)C([2H])([2H])C([2H])([2H])N(c2ccn3ncc(-c4cccnc4OC4CC4)c3n2)C1([2H])[2H]`
A (A: ≤0.015)

Return AAK1:GAK pSENs Selectivity for the following compound: `N#C[C@@H]1CN(c2ccn3ncc(-c4cccnc4OC4CC4)c3n2)CCN1C(=O)O[C@@H]1CNC(=O)C1`
B (B: 0.016-0.075)

In one line, give reported AAK1:GAK pSENs Selectivity of the entry `C[C@@]1(OC(=O)N2CCN(c3ccn4ncc(-c5cccnc5OC5CC5)c4n3)CC2)CCNC1` .
A (A: ≤0.015)

Supply AAK1:GAK pSENs Selectivity value. Item: `CC(C)Oc1ncccc1-c1cnn2ccc(N3CCN(C(=O)OC4(C)COC4)CC3)nc12`
A (A: ≤0.015)

Tell me measured AAK1:GAK pSENs Selectivity for `CC(C)Oc1ncccc1-c1cnn2ccc(N3CCN(C(=O)O[C@@H]4CNC(=O)C4)CC3)nc12` please.
A (A: ≤0.015)

Annotate the compound `CN(CCNc1ccn2ncc(-c3cccnc3OC3CN(C(=O)OC(C)(C)C)C3)c2n1)C(=O)OC(C)(C)C` with its measured AAK1:GAK pSENs Selectivity.
A (A: ≤0.015)

Please report AAK1:GAK pSENs Selectivity for the following compound: `CC(C)(C)OC(=O)NCCNc1ccc2ncc(-c3cccnc3OC3CC3)n2n1`
C (C: 0.076-0.15)

Return reported AAK1:GAK pSENs Selectivity. Input compound: `O=C1C[C@H](OC(=O)N[C@@H]2CCN(c3ccn4ncc(-c5cccnc5OC5CC5)c4n3)C2)CN1`
C (C: 0.076-0.15)
